IC50: recorded values
- TARGET_DESC: UniProt:Q92993
- Sequence (Q92993 other isoform, or with tags, fused parts or gaps): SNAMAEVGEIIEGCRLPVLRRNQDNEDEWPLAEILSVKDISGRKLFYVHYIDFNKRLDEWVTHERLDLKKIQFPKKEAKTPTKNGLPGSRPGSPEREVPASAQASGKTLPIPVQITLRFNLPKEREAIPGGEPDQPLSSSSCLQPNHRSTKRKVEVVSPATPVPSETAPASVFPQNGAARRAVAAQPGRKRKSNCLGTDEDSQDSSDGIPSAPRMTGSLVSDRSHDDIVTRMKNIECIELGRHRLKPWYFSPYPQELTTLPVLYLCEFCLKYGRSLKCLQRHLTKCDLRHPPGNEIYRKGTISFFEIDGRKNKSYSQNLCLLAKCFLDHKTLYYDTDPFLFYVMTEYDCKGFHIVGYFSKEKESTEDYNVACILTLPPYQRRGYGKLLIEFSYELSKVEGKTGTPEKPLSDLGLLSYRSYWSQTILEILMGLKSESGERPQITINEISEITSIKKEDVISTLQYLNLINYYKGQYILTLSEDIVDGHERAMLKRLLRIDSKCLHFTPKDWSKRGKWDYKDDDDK
- ASSAY_REMARKS: KAT-5 biochemical inhibition assay (SAMDI mass spectrometry)
MEASURED_PROPERTY: IC50

compound="CN1CC(CS(=O)(=O)NNC(=O)c2cc(-c3cn(C)cn3)cc(Cl)c2F)CC1=O (stereo not shown)" target_desc=UniProt:Q92993 observed="10 to 50 µM"
compound="Cn1cnc(-c2cc(Cl)c(F)c(C(=O)NNS(=O)(=O)CC3CCc4ccccc4C3)c2)c1 (stereo not shown)" target_desc=UniProt:Q92993 observed="< 10 µM"
compound="CCOC1CCC(CS(=O)(=O)NNC(=O)c2cc(-c3cn(C)cn3)cc(Cl)c2F)CC1 (stereo not shown)" target_desc=UniProt:Q92993 observed="< 10 µM"
compound=Cn1cnc(-c2cc(Cl)c(F)c(C(=O)NNS(=O)(=O)C3COC3)c2)c1 target_desc=UniProt:Q92993 observed="> 100 µM"
compound=CN1CCN([C@H]2C[C@@H](CS(=O)(=O)NNC(=O)c3cc(-c4cn(C)cn4)cc(Cl)c3F)C2)C1=O target_desc=UniProt:Q92993 observed="< 10 µM"
compound=Cc1cc(-c2cn(C)c(Cl)n2)cc(C(=O)NNS(=O)(=O)CC2CCCCC2)c1C target_desc=UniProt:Q92993 observed="> 100 µM"
compound=C[C@@H]1CN(C(=O)OC(C)(C)C)C[C@H]1CS(=O)(=O)NNC(=O)c1cc(-c2cn(C)cn2)cc(Cl)c1F target_desc=UniProt:Q92993 observed="< 10 µM"

----------
- TARGET_DESC: KAT-6A (Homo sapiens (Human), UniProt Q92794)
- Sequence (Q92794 other isoform, or with tags, fused parts or gaps): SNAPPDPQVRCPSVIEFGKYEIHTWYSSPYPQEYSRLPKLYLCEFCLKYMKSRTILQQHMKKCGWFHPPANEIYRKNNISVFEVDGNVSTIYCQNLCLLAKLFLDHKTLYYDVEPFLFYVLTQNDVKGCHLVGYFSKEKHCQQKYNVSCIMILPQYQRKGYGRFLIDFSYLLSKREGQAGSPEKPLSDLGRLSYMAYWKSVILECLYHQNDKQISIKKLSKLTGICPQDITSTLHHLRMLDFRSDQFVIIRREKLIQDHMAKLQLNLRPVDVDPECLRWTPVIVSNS
- ASSAY_REMARKS: KAT-6A biochemical inhibition assay (SAMDI mass spectrometry)
- Method: KAT-6A. Enzyme assay buffer was 50 mM Tris pH 8.0, 0.002% Tween20, 0.005% bovine skin gelatin, and 1 mM dithiothreitol (DTT). For determination of IC50 values, compounds were serially diluted with 2% (v/v) DMSO in the final reaction, pre-incubating each dilution of each compound with 40 μL of assay buffer containing KAT-6A enzyme (12.5 nM final concentration). 10 μL of assay buffer containing 1 μM peptide substrate and 1 μM acetyl coenzyme A (final concentrations) was added. […]
pIC50: −log10 of the molar value.
# pIC50 per entry
MEASURED_PROPERTY: pIC50

molecule=Cc1cc(-c2cn(C)c(Cl)n2)cc(C(=O)NNS(=O)(=O)CC2CCCCC2)c1C measured_property=pIC50 observed="< 4.00"
molecule=Cn1cc(-c2cc(Cl)c(F)c(C(=O)NNS(=O)(=O)CC3CCCCC3)c2)cn1 measured_property=pIC50 observed="4.30 to 5.00"
molecule=Cn1cnc(-c2cc(Cl)c(F)c(C(=O)NNS(=O)(=O)C[C@H]3CCCO3)c2)c1 measured_property=pIC50 observed="> 5.00"
molecule=CCc1cccc(S(=O)(=O)NNC(=O)c2cc(-c3ccccn3)cc(Cl)c2F)c1 measured_property=pIC50 observed="> 5.00"
molecule=Cc1nc(-c2cc(Cl)c(F)c(C(=O)NNS(=O)(=O)C3CCCCC3)c2)cn1C measured_property=pIC50 observed="4.30 to 5.00"
molecule="CC(C)NC(=O)N1CCC(CS(=O)(=O)NNC(=O)c2cc(-c3cn(C)cn3)cc(Cl)c2F)C1 (stereo not shown)" measured_property=pIC50 observed="> 5.00"
molecule=Cn1cnc(-c2cc(Cl)c(F)c(C(=O)NNS(=O)(=O)C[C@H]3C[C@@H](NC(=O)OC(C)(C)C)C3)c2)c1 measured_property=pIC50 observed="> 5.00"
